Target: human dopamine transporter (Homo sapiens (Human), UniProt Q01959)
Sequence (Q01959 whole entry): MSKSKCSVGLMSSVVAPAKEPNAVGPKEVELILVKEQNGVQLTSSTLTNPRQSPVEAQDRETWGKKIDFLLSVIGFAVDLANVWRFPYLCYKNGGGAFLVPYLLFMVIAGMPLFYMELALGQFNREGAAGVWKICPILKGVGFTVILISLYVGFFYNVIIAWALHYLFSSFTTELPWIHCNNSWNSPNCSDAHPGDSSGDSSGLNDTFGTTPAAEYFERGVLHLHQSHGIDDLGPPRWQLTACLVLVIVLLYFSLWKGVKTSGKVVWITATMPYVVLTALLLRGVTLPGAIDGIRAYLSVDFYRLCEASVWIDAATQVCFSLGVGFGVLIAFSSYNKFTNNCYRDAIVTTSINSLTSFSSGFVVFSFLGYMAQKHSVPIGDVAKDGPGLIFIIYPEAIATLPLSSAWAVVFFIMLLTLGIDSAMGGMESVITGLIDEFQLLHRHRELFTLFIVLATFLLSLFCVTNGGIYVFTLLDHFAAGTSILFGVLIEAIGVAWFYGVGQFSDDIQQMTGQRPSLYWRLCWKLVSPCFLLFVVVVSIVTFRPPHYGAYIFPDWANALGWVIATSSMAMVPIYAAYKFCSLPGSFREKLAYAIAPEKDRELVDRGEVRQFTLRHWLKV
Experiment: hDAT binding assay ([3H]WIN35,428);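 further: displacement of the radioligand from the transporter membranes, incubated 120 min at 4 °C in Tris-HCl buffer with NaCl, pH 7.4, measured by filter-bound radioactivity counting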
Conditions: membrane from CHO-K1 cells, 8 nM [3H]WIN35,428
Where a name gives a salt, the structure may show the parent alone.
Decide using IC50 alone. Strictly below 100 nM: 1. Equal to or above 100 nM: 0.

In [3]: df
Out[3]:
                                   compound  assigned_category
0  Cl.c1ccc(COC(c2ccccc2)C2CNC2)cc1 (stereo not drawn) [KHG26768, hydrochloride]                  0

Query: Check if IC50 falls below 100 nM for Cl.O=C(OC(c1ccc(Cl)c(Cl)c1)C1CNC1)c1ccccc1 (stereo not drawn) [KHG26773, hydrochloride] .
Reply: 0

Query: Please indicate whether the reported IC50 of Clc1ccc(C(Oc2ccccc2)C2CNC2)cc1Cl (stereo not drawn) [KHG26767, hydrochloride] is strictly below 100 nM.
Reply: 1

Query: hey, is IC50 for Cl.Clc1ccc(C(Oc2ccccc2)C2CNC2)cc1 (stereo not drawn) [KHG26766, hydrochloride] lower than 100 nM or not?
Reply: 0

Query: Input Cl.Clc1ccc(C(OCc2ccccc2)C2CNC2)cc1 (stereo not drawn) [KHG26769, hydrochloride] ; condition: IC50 strictly below 100 nM. Does it hold?
Reply: 0

Query: Given the entry Cl.Clc1ccc(C(OCc2ccccc2)C2CNC2)cc1Cl (stereo not drawn) [KHG26770, hydrochloride] , would its reported IC50 be below 100 nM?
Reply: 1

Query: Given Cc1ccccc1OC(c1ccc(Cl)c(Cl)c1)C1CNC1.Cl (stereo not drawn) [KHG26774, hydrochloride] , is recorded IC50 strictly lower than 100 nM?
Reply: 0

Query: Is it true that IC50 reported for Cc1cccc(OC(c2ccc(Cl)c(Cl)c2)C2CNC2)c1.Cl (stereo not drawn) [KHG26775, hydrochloride] is less than 100 nM?
Reply: 1

Query: Dear colleague, could you confirm whether IC50 of Cl.O=C(OC(c1ccc(Cl)cc1)C1CNC1)c1ccccc1 (stereo not drawn) [KHG26772, hydrochloride] falls below 100 nM? Thanks.
Reply: 0

Cited source for all entries: patent US9120771B2
